Target: UniProt:P08913

{"compound": "COC1(C2=NCCN2)COc2ccccc2O1 (stereo not shown) [[^3H]RX82,1002]", "Kd / nM": 0.54}

====

Recorded Emax values for a group of compounds are listed next.
Molecular target: UniProt P08913
Assay: Gi recruitment (G protein)
Format: cell-based
Details: Gi recruitment, Tables 7-9; read-out: G protein Emax (%)
propertyLabel: Emax (%)

{"itemSmiles": "Nc1ccc(-c2cc(Cl)c3[nH]ncc3c2)cn1", "propertyLabel": "Emax", "qualifierSign": "=", "recordedMeasurement": 27}
{"itemSmiles": "Nc1ccc(-c2cc3cn[nH]c3cc2F)cn1", "propertyLabel": "Emax", "qualifierSign": "=", "recordedMeasurement": 18}
{"itemSmiles": "N#Cc1cc2[nH]ncc2cc1-c1ccc(N)nc1", "propertyLabel": "Emax", "qualifierSign": "=", "recordedMeasurement": 14}
{"itemSmiles": "C1=C(c2ccc3c(c2)CC3)CNCC1", "propertyLabel": "Emax", "qualifierSign": "=", "recordedMeasurement": 76}
{"itemSmiles": "Cc1cc2[nH]ncc2cc1-c1ccc(N)nc1", "propertyLabel": "Emax", "qualifierSign": "=", "recordedMeasurement": 60}
{"itemSmiles": "O=C1CCc2ccc(C3=CCCNC3)cc21", "propertyLabel": "Emax", "qualifierSign": "=", "recordedMeasurement": 79}
{"itemSmiles": "Nc1ccc(-c2cc3cn[nH]c3cc2[N+](=O)[O-])cn1", "propertyLabel": "Emax", "qualifierSign": "=", "recordedMeasurement": 51}
{"itemSmiles": "C=C1CCc2cc(C3=CCCNC3)ccc21", "propertyLabel": "Emax", "qualifierSign": "<", "recordedMeasurement": 5}
{"itemSmiles": "COc1cc2[nH]ncc2cc1-c1ccc(N)nc1", "propertyLabel": "Emax", "qualifierSign": "<", "recordedMeasurement": 6}
{"itemSmiles": "C=C(c1ccc(C(F)(F)F)cc1)c1cc(N)ccn1", "propertyLabel": "Emax", "qualifierSign": "<", "recordedMeasurement": 5}
{"itemSmiles": "Nc1ccc(-c2cc([N+](=O)[O-])c3[nH]ncc3c2)cn1", "propertyLabel": "Emax", "qualifierSign": "=", "recordedMeasurement": -27}
{"itemSmiles": "Nc1ccc(-c2ccc3[nH]ncc3c2Cl)cn1", "propertyLabel": "Emax", "qualifierSign": "=", "recordedMeasurement": 81}
{"itemSmiles": "O=C1CCc2cc(C3=CCCNC3)ccc21", "propertyLabel": "Emax", "qualifierSign": "<", "recordedMeasurement": 5}
{"itemSmiles": "N#Cc1ccc(C2=CCCNC2)c2cccnc12", "propertyLabel": "Emax", "qualifierSign": "<", "recordedMeasurement": 5}
{"itemSmiles": "C1=C(c2cccc3ncncc23)CNCC1", "propertyLabel": "Emax", "qualifierSign": "<", "recordedMeasurement": 10}
{"itemSmiles": "CC1=CCc2cc(C3=CCCNC3)ccc21", "propertyLabel": "Emax", "qualifierSign": "<", "recordedMeasurement": 10}
{"itemSmiles": "Nc1ccnc(Cc2ccc(F)cc2)c1", "propertyLabel": "Emax", "qualifierSign": "=", "recordedMeasurement": 19}
{"itemSmiles": "Nc1ccc(-c2cc3cn[nH]c3cc2Cl)cn1", "propertyLabel": "Emax", "qualifierSign": "=", "recordedMeasurement": 64}
{"itemSmiles": "Nc1ccc(-c2ccc3[nH]ncc3c2F)cn1", "propertyLabel": "Emax", "qualifierSign": "=", "recordedMeasurement": 49}

====

Experiment: Pharmacokinetics in mice (plasma, brain, CSF)
Format: in vivo
Details: I.P. 10 mg/kg
Where a name gives a salt, the structure may show the parent alone.

{"molecule": "c1ccc2c(Nc3ccncc3)cncc2c1 [Compound 9087, N-(pyridin-4-yl)isoquinolin-4-amine]", "Cmax CSF [ng/mL]": 447}
{"molecule": "C1=C(c2ccc3c(c2)CC3)CNCC1 [Compound 4622]", "Cmax CSF [ng/mL]": 44.2}
{"molecule": "Clc1ccc2cccc(Nc3ccncc3)c2c1 [PS75, TFA]", "Cmax CSF [ng/mL]": 99.3}
{"molecule": "Fc1cccc2c(Nc3ccncc3)cccc12 [Compound 7075]", "Cmax CSF [ng/mL]": 412}

====

Assay: Pharmacokinetics in mice (plasma, brain, CSF)
Assay type: in vivo
Conditions: mouse, plasma, ip, I.P. 10 mg/kg, read-out: T ½ Plasma (converted)
Structures can show the parent of a compound that is named as a salt.

{"compound": "Cc1cc2[nH]ncc2cc1-c1ccc(N)nc1", "half-life [min]": 24}
{"compound": "C1=C(c2ccc3c(c2)CC3)CNCC1", "half-life [min]": 60.6}
{"compound": "Clc1ccc2cccc(Nc3ccncc3)c2c1 [PS75, TFA]", "half-life [min]": 43.8}
{"compound": "Fc1cccc2c(Nc3ccncc3)cccc12", "half-life [min]": 38.4}

====

Molecular target: ALPHA-2A ADRENERGIC RECEPTOR (Homo sapiens (Human), UniProt P08913)
Sequence (P08913 whole entry): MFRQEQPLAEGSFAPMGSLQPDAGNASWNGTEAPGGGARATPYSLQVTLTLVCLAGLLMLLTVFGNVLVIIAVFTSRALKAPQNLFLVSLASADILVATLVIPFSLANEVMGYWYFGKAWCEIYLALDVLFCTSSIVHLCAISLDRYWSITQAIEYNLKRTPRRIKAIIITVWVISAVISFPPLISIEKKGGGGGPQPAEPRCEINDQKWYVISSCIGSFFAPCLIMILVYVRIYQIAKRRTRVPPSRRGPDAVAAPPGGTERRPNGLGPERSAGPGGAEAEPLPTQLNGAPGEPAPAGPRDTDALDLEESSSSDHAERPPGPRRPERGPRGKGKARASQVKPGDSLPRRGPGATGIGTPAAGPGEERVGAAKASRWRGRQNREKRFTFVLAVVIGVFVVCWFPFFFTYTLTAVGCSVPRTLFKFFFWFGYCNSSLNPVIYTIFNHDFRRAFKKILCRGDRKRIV
Assay: Gi recruitment (G protein)
Format: cell-based
Conditions: Gi recruitment, Table 6; read-out: EC50
propertyLabel: EC50 (µM)

{"itemSmiles": "c1cc(Nc2ccncc2)c2sccc2c1", "unitDescriptor": "µM", "recordedMeasurement": 0.0068}
{"itemSmiles": "COc1ccc2cccc(Nc3ccncc3)c2c1", "unitDescriptor": "µM", "recordedMeasurement": 0.089}
{"itemSmiles": "Oc1ccc2c(Nc3ccncc3)cccc2c1", "unitDescriptor": "µM", "recordedMeasurement": 0.087}
{"itemSmiles": "CN1CCc2c(Nc3ccncc3)cccc2C1=O", "unitDescriptor": "µM", "recordedMeasurement": 1.2}

====

Target: human α2AAR (Homo sapiens (Human))
Experiment: Radioligand competition binding to human α2AAR (HEK293T membranes, [3H]RX82,1002)
Conditions: human α2AAR; mean ± s.e.m.; read-out: Ki for α2AAR
Where a name gives a salt, the structure may show the parent alone.
In this section we review reported Ki values for a set of compounds.

{"compound": "Clc1ccc2cccc(Nc3ccncc3)c2c1 [PS75, TFA]", "testTarget": "human α2AAR (Homo sapiens (Human))", "Ki": "8.2 nM"}
{"compound": "Cc1cc2[nH]ncc2cc1-c1ccc(N)nc1 [Compound 2998]", "testTarget": "human α2AAR (Homo sapiens (Human))", "Ki": "180 nM"}
{"compound": "C1=C(c2ccc3c(c2)CC3)CNCC1 [Compound 4622]", "testTarget": "human α2AAR (Homo sapiens (Human))", "Ki": "12 nM"}
{"compound": "Fc1cccc2c(Nc3ccncc3)cccc12 [Compound 7075]", "testTarget": "human α2AAR (Homo sapiens (Human))", "Ki": "37 nM"}

====

Target: α2CAR (Homo sapiens (Human), UniProt P18825)
Sequence (P18825 whole entry): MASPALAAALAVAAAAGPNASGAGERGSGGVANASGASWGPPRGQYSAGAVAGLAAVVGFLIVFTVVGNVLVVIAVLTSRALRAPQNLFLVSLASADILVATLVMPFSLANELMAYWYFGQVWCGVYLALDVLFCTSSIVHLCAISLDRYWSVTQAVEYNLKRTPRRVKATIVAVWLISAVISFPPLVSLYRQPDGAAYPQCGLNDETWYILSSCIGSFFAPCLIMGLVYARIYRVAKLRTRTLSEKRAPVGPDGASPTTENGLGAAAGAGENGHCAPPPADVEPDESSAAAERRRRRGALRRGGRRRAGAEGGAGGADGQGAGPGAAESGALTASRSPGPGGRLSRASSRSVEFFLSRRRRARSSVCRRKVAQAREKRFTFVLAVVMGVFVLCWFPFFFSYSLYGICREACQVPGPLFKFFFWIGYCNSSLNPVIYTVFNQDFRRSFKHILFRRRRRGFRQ

{"compound": "COC1(C2=NCCN2)COc2ccccc2O1 (stereo not shown) [[^3H]RX82,1002]", "testTarget": "α2CAR (Homo sapiens (Human), UniProt P18825)", "unitDescriptor": "nM", "Kd": 0.58}

====

Assay: Pharmacokinetics in mice (plasma, brain, CSF)
Format: in vivo
Conditions: I.P. 10 mg/kg
Description: Pharmacokinetics. Pharmacokinetic experiments were performed by Bienta (Enamine Biology Services) in accordance with Enamine pharmacokinetic study protocols and Institutional Animal Care and Use Guidelines (protocol number 1-2/2020). […] Plasma samples (40 μL) were mixed with 200 μL of internal standard (IS) solution. […] Solutions of internal standards were used to quantify compounds in the plasma samples. […]
Assign YES to entries whose Cmax Brain meets or exceeds 9000 ng/mL; assign NO to the rest.

{"molecule": "c1ccc2c(Nc3ccncc3)cncc2c1 [Compound 9087, N-(pyridin-4-yl)isoquinolin-4-amine]", "assignedClass": "NO"}
{"molecule": "Cc1cc2[nH]ncc2cc1-c1ccc(N)nc1 [Compound 2998]", "assignedClass": "NO"}
{"molecule": "C1=C(c2ccc3c(c2)CC3)CNCC1 [Compound 4622]", "assignedClass": "YES"}
{"molecule": "Fc1cccc2c(Nc3ccncc3)cccc12 [Compound 7075]", "assignedClass": "NO"}

====

Known half-life of a selection of compounds
Assay: Pharmacokinetics in mice (plasma, brain, CSF)
Type: in vivo
Settings: mouse, brain, ip, I.P. 10 mg/kg, read-out: T ½ Brain (converted)
Counter-ions that a name gives are not always drawn.

{"compound": "C1=C(c2ccc3c(c2)CC3)CNCC1 [Compound 4622]", "half-life / min": 52.8}
{"compound": "Fc1cccc2c(Nc3ccncc3)cccc12 [Compound 7075]", "half-life / min": 43.8}
{"compound": "Clc1ccc2cccc(Nc3ccncc3)c2c1 [PS75, TFA]", "half-life / min": 64.2}
{"compound": "Cc1cc2[nH]ncc2cc1-c1ccc(N)nc1 [Compound 2998]", "half-life / min": 27.6}

====

Target: human α2AAR (Homo sapiens (Human), UniProt P08913)
Test: Gαi G protein activation, BRET biosensor assay in HEK293T cells
Details: HEK-293T, read-out: Gi Emax ± SEM
Where a name gives a salt, the structure may show the parent alone.

{"compound": "COc1ccc2cccc(Nc3ccncc3)c2c1", "unitDescriptor": "%", "qualifierSign": "=", "Emax": 85}
{"compound": "Clc1ccc2cccc(Nc3ccncc3)c2c1 [PS75, TFA]", "unitDescriptor": "%", "qualifierSign": "=", "Emax": 82}
{"compound": "Nc1ccc(Nc2cncc3ccccc23)cc1", "unitDescriptor": "%", "qualifierSign": "<", "Emax": 5}
